pIC50: −log10 of the molar value.
Below are pIC50 values measured for UniProtKB Q93009.
Sequence (Q93009 whole entry): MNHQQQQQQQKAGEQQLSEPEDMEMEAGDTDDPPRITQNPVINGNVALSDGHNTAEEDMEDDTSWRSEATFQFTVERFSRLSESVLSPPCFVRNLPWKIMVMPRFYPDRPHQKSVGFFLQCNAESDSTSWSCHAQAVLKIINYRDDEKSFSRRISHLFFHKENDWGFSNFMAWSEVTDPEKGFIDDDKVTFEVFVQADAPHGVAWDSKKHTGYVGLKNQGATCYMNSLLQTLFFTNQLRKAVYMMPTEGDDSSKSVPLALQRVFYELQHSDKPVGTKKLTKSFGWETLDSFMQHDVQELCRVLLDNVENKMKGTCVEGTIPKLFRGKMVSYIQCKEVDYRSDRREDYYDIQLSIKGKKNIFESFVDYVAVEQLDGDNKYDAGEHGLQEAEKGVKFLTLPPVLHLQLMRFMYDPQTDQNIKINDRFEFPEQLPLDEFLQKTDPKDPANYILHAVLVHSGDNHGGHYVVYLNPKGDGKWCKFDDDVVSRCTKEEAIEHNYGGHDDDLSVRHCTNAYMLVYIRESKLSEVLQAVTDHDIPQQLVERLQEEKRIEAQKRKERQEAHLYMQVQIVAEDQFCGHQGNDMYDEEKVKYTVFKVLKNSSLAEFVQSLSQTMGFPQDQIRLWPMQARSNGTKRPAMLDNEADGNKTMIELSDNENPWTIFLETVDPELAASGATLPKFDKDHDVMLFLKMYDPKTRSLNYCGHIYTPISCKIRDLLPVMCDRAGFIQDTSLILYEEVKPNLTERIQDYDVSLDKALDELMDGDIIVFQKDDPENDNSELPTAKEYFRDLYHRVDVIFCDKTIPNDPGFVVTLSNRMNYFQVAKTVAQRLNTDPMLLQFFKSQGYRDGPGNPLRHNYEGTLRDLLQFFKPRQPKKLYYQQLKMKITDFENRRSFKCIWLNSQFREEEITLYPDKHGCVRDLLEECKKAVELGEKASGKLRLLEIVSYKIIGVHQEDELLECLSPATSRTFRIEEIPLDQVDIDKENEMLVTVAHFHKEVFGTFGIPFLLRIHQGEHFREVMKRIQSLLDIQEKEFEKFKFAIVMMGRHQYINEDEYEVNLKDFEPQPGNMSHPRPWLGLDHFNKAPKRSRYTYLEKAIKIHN

Below, each entry is followed by its recorded pIC50 result.
# Compound, Experimental Readout, Value Observed
records = [
    ("Cc1ccnn(Cc2cc3nccc(-c4cc(Cl)cc5c4N(C4CNC4)CCC5)c3s2)c1=O", "pIC50", "7.00 to 8.00"),
    ("N#Cc1cc(-c2ccnc3cc(Cn4ncc(C5(C(F)(F)F)CC5)cc4=O)sc23)c2c(c1)C1CC1CN2[C@@H]1CN[C@@H](CO)C1 (stereo in doubt) [Example 194b]", "pIC50", "7.00 to 8.00"),
]

# ---- query compound ----
Task item: // pIC50 lookup, key: O=C1[C@@H]2[C@H]3CC[C@H](C3)[C@@H]2C(=O)N1Cc1cc2nccc(-c3cc(Cl)cc4c3N([C@@H]3CNC5(CCC5)C3)CCC4)c2s1
Reply: 7.00 to 8.00
